Hello, the source for this data is ChEMBL document CHEMBL1121938, in case you need it.

test system: Rattus norvegicus; assay: Effect of compound was measured on serum total cholesterol in male Dawley rats at the dose of 0.4 mmol/kg (day-1).; format: functional, organism-based
# Lookup of reported serum total cholesterol keyed by entry
Just the number in mg/dL, nothing appended.

Known serum total cholesterol results, listed for orientation:
[
  {
    "compound": "CCOC(=O)C(C)(C)Oc1ccc(Cl)cc1 [CLOFIBRATE]",
    "result unit": "mg/dL",
    "serum total cholesterol": 202
  },
  {
    "compound": "NC1=C(O)C(=O)C(c2ccc(Cl)cc2)O1 (centres undefined)",
    "result unit": "mg/dL",
    "serum total cholesterol": 193
  },
  {
    "compound": "O=C1OC(c2ccc(Cl)cc2)C(=O)C1=O (centres undefined)",
    "result unit": "mg/dL",
    "serum total cholesterol": 250
  }
]

Please turn your attention to the following entry.
Qu. Fill in the blank: the reported serum total cholesterol of O=C1C(O)=C(O)OC1c1ccc(Cl)cc1 (centres undefined) is ____.
Ans. 196
